Reported GI50 by item:
# System: Malme-3M
# ASSAY PROCEDURE: NCI tumour cell line growth inhibition, 48 h
Activity calls are given as the source filed them. Rule as the data show it: active = GI50 up to about 1.1 µM and inactive = higher.
REPORTED ENDPOINT: GI50

- COMPOUND: "O=C(CC(=O)Nc1ccccc1)N/N=C/c1cc(/N=N/c2ccc(Br)cc2)ccc1O"
  REPORTED ENDPOINT: "GI50"
  OBS VALUE: "5.93 µM (inactive)"
- COMPOUND: "COc1ccc(C(OCC2OC(n3cc(C)c(=O)[nH]c3=O)CC2n2cc(Cn3cc(I)c(=O)[nH]c3=O)nn2)(c2ccccc2)c2ccccc2)cc1 (stereo not given)"
  REPORTED ENDPOINT: "GI50"
  OBS VALUE: "> 100 µM (inactive)"
- COMPOUND: "CC(CO)[C@H]1OC(=O)C=C2[C@@]13O[C@@H]3[C@H]1OC(=O)[C@@]3(C)[C@H]4O[C@H]4C[C@@]2(C)[C@@H]13 (stereo not given in full)"
  REPORTED ENDPOINT: "GI50"
  OBS VALUE: "2.13 µM (inactive)"
- COMPOUND: "CCc1ccccc1NC(=O)C(=O)CC(=O)c1sc(Nc2ccccc2)nc1C"
  REPORTED ENDPOINT: "GI50"
  OBS VALUE: "> 100 µM (inactive)"
- COMPOUND: "CCN1CCC(C)OP1(=O)Cc1ccccc1 (stereo not given)"
  REPORTED ENDPOINT: "GI50"
  OBS VALUE: "> 100 µM (inactive)"
